assay: in vitro; settings: human, Caco-2
readout.kind: Papp at 0.5 μCi/ml (×10⁻⁶ cm/s)
Lab book: enter the figure in ×10⁻⁶ cm/s, no units written.

Item: OC[C@@H](O)[C@@H](O)[C@H](O)[C@H](O)CO | Papp at 0.5 μCi/ml: 0.686
